Provide the recorded λabs for the entries that follow.
assay: Optical / fluorescence properties (absorption, emission, extinction coefficient, quantum yield, lifetime); format: physicochemical; details: in dichloromethane
Only the number, expressed in nm, is required.

Prompt: // λabs lookup, key: `COCCOCC#C[B-]1(C#CCOCCOC)n2c(C)cc(C)c2C(c2ccc(C(=O)NCC(=O)O)cc2)=C2C(C)=CC(C)=[N+]21`
Completion: 501

Prompt: One more compound: `CCOC(=O)c1ccc(C2=C3C(C)=C(CC)C(C)=[N+]3[B-](C#CCOCCOC)(C#CCOCCOC)n3c(C)c(CC)c(C)c32)cc1`
Completion: 522

Prompt: One more compound: `CCOC(=O)CNC(=O)c1ccc(C2=C3C(C)=CC(C)=[N+]3[B-](C#CCOCCOC)(C#CCOCCOC)n3c(C)cc(C)c32)cc1`
Completion: 501

Prompt: One more compound: `COCCOCC#C[B-]1(C#CCOCCOC)n2c(C)cc(C)c2C(c2ccc(C(=O)NCCN)cc2)=C2C(C)=CC(C)=[N+]21`
Completion: 500

Prompt: One more compound: `COCCOCC#C[B-]1(C#CCOCCOC)n2c(/C=C/c3ccc(OCCOCCOC)cc3)cc(C)c2C(c2ccc(C(=O)O)cc2)=C2C(C)=CC(/C=C/c3ccc(OCCOCCOC)cc3)=[N+]21`
Completion: 647

Prompt: One more compound: `CCC1=C(C)C2=C(c3ccc(I)cc3)c3c(C)c(CC)c(C)n3[B-](C#CCOCCOC)(C#CCOCCOC)[N+]2=C1C`
Completion: 522
